# target_desc: Sodium channel protein type 9 subunit alpha (Homo sapiens, UniProt Q15858)
# Sequence (Q15858 whole entry): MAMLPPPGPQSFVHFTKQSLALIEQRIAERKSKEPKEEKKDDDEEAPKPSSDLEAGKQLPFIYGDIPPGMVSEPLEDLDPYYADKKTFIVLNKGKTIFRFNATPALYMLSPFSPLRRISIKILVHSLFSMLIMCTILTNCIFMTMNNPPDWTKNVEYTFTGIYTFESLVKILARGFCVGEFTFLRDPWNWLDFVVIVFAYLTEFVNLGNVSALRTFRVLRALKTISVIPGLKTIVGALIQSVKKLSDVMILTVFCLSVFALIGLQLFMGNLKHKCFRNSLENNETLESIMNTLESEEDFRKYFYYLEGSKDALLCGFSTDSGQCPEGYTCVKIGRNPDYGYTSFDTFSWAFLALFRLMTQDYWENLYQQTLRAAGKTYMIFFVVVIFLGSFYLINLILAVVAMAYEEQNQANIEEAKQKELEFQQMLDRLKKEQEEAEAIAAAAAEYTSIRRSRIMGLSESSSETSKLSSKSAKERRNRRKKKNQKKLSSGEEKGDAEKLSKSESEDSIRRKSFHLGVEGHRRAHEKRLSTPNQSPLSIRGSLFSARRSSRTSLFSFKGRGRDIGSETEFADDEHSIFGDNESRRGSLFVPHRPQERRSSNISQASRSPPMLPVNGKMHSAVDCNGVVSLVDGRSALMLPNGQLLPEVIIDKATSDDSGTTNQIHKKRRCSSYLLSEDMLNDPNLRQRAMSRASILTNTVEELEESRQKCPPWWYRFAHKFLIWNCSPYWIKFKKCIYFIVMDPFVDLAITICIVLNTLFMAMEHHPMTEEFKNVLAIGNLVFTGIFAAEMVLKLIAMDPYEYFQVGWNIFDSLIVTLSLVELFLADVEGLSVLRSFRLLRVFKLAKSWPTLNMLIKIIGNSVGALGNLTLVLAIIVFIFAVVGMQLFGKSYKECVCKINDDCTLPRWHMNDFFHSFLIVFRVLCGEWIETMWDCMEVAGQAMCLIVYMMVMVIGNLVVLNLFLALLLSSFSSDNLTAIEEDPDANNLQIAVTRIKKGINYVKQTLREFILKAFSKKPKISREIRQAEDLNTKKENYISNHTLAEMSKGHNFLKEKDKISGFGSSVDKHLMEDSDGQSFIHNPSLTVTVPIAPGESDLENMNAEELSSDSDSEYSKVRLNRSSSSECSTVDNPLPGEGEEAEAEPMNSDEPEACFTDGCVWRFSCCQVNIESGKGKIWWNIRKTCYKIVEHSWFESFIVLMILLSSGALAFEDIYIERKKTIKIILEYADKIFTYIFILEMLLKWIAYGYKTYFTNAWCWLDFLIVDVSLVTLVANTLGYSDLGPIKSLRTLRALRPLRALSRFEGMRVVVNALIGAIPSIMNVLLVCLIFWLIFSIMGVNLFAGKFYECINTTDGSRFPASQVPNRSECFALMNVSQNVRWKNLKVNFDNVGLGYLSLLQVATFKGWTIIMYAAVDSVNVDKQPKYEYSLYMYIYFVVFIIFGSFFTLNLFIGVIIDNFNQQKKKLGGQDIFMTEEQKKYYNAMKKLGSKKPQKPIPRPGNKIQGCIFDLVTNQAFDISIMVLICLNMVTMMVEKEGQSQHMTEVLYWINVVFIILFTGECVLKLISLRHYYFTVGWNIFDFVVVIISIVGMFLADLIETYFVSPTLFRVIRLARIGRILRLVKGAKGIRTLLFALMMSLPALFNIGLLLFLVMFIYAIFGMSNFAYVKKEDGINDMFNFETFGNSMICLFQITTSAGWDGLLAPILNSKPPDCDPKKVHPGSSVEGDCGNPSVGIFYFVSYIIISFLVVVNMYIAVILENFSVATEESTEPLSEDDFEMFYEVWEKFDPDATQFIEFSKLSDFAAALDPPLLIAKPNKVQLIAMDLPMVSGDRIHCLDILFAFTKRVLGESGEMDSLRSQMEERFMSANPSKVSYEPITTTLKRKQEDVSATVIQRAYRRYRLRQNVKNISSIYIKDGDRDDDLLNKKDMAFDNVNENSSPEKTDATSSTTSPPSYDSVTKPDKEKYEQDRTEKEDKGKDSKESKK
# experiment_summary: Inhibition of human voltage-gated Na channel 1.7 by cell based patch clamp technique
readout: pIC50
Quick note: pIC50 means taking -log10 of the concentration in moles per liter.

### Prompt Field request: pIC50 | item: COc1cnc(-c2cccc3c2C[C@H](NC(=O)c2ccc(COCC(F)(F)F)nc2)CO3)cn1
### Response 7.18

====

# target_desc: Glutamate receptor ionotropic, kainate 1 (Homo sapiens)
# Sequence (P39086 whole entry): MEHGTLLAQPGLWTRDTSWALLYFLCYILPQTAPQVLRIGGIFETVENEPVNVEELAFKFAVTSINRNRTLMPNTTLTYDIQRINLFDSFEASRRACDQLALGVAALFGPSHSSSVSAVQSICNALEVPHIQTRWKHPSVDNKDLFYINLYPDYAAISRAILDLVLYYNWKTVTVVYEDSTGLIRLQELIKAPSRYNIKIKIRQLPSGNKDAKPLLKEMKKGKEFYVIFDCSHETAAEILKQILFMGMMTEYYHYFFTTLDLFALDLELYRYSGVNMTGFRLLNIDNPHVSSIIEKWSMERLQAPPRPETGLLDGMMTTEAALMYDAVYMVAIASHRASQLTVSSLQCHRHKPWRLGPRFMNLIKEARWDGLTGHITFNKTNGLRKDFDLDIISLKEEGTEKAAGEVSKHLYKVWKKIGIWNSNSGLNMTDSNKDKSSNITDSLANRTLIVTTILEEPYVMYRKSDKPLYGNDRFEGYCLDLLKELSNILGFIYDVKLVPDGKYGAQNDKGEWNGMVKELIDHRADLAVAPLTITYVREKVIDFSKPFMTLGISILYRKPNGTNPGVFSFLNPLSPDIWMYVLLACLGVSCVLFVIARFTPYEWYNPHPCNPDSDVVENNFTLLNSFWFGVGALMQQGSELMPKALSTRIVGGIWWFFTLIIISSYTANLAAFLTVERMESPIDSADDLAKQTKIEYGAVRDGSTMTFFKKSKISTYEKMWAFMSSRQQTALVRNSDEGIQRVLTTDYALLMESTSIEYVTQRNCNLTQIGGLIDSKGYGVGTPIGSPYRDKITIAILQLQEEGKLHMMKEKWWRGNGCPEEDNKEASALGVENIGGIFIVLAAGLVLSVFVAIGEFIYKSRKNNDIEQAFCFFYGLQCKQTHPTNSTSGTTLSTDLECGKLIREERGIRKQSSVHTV
readout: pIC50
Quick note: pIC50 means taking -log10 of the concentration in moles per liter.

### Prompt Field request: pIC50 | item: O=C(O)[C@@H]1C[C@H]2C[C@@H](CCc3nn[nH]n3)CC[C@H]2CN1 [TEZAMPANEL ANHYDROUS]
### Response 6.30

====

# target_desc: Sodium channel protein type 1 subunit alpha (Rattus norvegicus, UniProt P04774)
# experiment_summary: Inhibition of rat voltage-gated Na channel 1.1 in dorsal root ganglion neurons by patch clamp technique
readout: IC50

### Prompt Field request: IC50 | item: O=C1[C@@H](N2CC[C@H](c3cc(Cl)cc(Cl)c3)C2)CCN1c1ccc(S(=O)(=O)Nc2nccs2)cc1
### Response < 2000 nM

====

# target_desc: Sodium channel protein type 9 subunit alpha (Homo sapiens, UniProt Q15858)
# experiment_summary: Binding affinity to human inactivated voltage-gated Na channel 1.7 expressed in HEK293 cells by patch-clamp technique
# Format: cell-based
readout: IC50 (nM)
The reply should contain only the number, in nM.

### Prompt Entry COC[C@@H](NC(C)=O)C(=O)NCc1ccccc1 [LACOSAMIDE] , system Sodium channel protein type 9 subunit alpha (Homo sapiens, UniProt Q15858): what IC50 was measured?
### Response 182

====

# target_desc: Sodium channel protein type 8 subunit alpha (Homo sapiens)
# experiment_summary: Inhibition of voltage-gated Na channel 1.6 (unknown origin)
readout: IC50

### Prompt Field request: IC50 | item: NC(=O)C(c1ccccc1)(c1ccc(F)cc1)c1ccc(F)cc1
### Response > 1 µM

====

# target_desc: Potassium voltage-gated channel subfamily B member 2 (Homo sapiens, UniProt Q92953)
# Sequence (Q92953 whole entry): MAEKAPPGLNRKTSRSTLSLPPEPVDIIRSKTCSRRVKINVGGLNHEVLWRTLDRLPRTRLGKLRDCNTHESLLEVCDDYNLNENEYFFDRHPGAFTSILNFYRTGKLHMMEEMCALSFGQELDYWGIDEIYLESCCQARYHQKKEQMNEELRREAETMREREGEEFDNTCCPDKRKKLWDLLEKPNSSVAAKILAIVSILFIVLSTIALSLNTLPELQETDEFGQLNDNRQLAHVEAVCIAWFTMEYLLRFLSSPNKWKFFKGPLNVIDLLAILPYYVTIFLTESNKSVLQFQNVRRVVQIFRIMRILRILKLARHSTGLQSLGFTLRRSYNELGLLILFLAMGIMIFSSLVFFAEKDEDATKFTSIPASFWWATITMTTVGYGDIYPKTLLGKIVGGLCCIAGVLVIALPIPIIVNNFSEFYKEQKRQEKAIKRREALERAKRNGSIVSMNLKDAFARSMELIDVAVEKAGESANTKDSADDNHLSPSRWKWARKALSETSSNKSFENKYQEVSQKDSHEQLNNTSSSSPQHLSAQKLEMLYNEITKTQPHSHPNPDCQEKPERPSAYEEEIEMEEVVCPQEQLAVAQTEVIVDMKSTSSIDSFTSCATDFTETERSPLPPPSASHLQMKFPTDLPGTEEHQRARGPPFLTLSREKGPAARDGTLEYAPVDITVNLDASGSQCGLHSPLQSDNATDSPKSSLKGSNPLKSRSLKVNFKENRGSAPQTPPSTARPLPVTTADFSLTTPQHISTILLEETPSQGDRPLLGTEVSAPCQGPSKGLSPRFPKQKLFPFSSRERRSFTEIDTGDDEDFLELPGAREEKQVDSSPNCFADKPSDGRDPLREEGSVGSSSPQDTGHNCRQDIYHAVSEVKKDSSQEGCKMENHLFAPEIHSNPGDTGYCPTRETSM
# experiment_summary: Inhibition of voltage-gated K channel 2.2 (unknown origin) by automated patch clamp assay
readout: IC50 (nM)
The reply should contain only the number, in nM.

### Prompt Field request: IC50 | item: CC(C)C(=O)Nc1ccc(N(C)C)c(C(=O)N[C@@H](C)c2ccccc2)c1
### Response 100

====

# target_desc: Sodium channel protein type 3 subunit alpha (Homo sapiens)
# Sequence (Q9NY46 whole entry): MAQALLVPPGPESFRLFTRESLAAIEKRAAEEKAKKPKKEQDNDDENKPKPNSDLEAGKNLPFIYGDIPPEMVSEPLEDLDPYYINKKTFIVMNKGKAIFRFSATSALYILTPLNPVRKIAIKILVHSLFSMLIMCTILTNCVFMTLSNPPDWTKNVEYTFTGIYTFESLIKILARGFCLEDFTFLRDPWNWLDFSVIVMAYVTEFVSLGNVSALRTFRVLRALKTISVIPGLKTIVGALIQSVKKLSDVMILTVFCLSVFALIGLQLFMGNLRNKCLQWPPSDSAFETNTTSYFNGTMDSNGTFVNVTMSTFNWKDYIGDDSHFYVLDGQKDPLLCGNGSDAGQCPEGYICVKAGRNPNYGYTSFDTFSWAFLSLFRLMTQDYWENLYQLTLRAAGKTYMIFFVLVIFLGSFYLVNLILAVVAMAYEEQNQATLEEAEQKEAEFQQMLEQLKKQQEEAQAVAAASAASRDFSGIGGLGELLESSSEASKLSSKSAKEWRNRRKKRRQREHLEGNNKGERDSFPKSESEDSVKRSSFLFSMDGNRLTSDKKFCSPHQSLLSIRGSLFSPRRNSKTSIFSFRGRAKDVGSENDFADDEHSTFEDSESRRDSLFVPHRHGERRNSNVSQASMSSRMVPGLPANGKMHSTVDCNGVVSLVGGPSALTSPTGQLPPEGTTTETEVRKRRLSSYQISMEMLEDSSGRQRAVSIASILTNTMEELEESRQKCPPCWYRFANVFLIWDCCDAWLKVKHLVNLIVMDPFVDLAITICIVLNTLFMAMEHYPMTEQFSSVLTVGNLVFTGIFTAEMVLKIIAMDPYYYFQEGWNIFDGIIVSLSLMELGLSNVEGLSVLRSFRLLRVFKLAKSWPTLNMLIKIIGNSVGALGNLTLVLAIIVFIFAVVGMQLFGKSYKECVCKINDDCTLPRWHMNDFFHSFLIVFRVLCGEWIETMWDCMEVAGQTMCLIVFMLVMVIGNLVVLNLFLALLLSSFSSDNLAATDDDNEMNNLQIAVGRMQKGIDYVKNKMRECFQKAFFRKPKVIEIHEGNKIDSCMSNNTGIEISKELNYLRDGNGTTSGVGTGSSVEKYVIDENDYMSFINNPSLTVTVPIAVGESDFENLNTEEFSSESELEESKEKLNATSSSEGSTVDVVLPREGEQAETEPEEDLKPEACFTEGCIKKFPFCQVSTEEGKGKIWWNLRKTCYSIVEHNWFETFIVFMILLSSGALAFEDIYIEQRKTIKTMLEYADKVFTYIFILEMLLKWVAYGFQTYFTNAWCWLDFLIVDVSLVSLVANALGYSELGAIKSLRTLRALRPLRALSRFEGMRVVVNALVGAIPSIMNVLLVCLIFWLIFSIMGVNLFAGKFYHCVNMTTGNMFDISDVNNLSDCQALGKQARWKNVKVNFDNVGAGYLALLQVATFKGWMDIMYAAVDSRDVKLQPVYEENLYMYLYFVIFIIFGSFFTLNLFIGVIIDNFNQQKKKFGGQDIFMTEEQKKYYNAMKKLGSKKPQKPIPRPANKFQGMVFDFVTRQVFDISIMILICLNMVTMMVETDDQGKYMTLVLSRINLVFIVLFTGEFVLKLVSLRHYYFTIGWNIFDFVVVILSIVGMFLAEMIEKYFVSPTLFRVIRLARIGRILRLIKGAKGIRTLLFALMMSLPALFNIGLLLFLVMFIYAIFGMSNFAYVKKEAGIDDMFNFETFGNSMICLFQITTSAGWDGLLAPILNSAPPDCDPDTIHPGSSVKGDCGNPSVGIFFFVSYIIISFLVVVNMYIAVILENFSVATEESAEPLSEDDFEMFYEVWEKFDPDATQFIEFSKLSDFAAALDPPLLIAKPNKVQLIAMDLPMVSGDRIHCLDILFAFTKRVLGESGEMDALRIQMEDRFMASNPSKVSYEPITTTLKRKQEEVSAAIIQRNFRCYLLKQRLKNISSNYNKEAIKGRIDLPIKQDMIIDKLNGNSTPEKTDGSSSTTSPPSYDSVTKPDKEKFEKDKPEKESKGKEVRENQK
# experiment_summary: Inhibition of human voltage-gated Na channel 1.3
readout: IC50 (nM)
The reply should contain only the number, in nM.

### Prompt Field request: IC50 | item: O=C(NCc1ccc(Cl)c(C(F)(F)F)c1)c1ccc(S(=O)(=O)Nc2ncc(Cl)s2)cc1
### Response 30
